Please provide measured relative viability for the entries that follow.
System: EBC-1
Experimental Details: relative viability (nuclei count vs DMSO), 5 days (fraction); higher = more cells survive
Condition Notes: first compound 2 µM

Known relative viability results, listed for orientation:
Compound: COCC1(CO)C(=O)C2CCN1CC2 (centres undefined) [PRIMA-1MET] + CS(=O)(=O)N1CCN(Cc2cc3nc(-c4cccc5[nH]ncc45)nc(N4CCOCC4)c3s2)CC1 [Pictilisib] (partner 1 µM)
relative viability: 0.402

Compound: COCC1(CO)C(=O)C2CCN1CC2 (centres undefined) [PRIMA-1MET] + CS(=O)(=O)CCNCc1ccc(-c2ccc3ncnc(Nc4ccc(OCc5cccc(F)c5)c(Cl)c4)c3c2)o1 [Lapatinib] (partner 2 µM)
relative viability: 0.203

Compound: COCC1(CO)C(=O)C2CCN1CC2 (centres undefined) [PRIMA-1MET] + Cc1nc(NC(=O)N2CCC[C@H]2C(N)=O)sc1-c1ccnc(C(C)(C)C(F)(F)F)c1 [Alpelisib] (partner 2 µM)
relative viability: 0.83

Moving on to another compound below.
q: What value of measured relative viability is listed for COCC1(CO)C(=O)C2CCN1CC2 (centres undefined) [PRIMA-1MET] + C[C@]1(O)C[C@@H](c2nc(-c3ccc4ccc(-c5ccccc5)nc4c3)c3c(N)nccn32)C1 [Linsitinib] (partner 1 µM) ?
a: 0.758
